Recorded values, source patent US11661410B2.

# testedTarget: muscarinic M2 receptor (Homo sapiens (Human), UniProt P08172)
# Sequence (P08172 whole entry): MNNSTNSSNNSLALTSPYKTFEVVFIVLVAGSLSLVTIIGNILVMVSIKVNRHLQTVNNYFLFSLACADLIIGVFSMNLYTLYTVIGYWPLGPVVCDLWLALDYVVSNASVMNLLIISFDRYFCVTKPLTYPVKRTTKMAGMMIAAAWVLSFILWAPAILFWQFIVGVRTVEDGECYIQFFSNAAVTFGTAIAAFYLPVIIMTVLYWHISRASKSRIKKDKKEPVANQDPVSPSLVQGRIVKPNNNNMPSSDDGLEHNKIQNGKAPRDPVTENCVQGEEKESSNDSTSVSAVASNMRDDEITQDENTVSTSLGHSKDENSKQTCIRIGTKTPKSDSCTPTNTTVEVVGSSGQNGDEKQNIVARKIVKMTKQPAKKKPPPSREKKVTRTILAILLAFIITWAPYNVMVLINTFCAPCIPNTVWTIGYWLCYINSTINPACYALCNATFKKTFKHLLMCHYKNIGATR
# methodNotes: Safety pharmacological profiling: muscarinic M2 receptor ligand binding
# appliedConditions: compound at 10 μM, in duplicate; ligand binding to cell membranes; read-out: Muscarinic M2 percent inhibition
recordedMetric: inhibition at 10 µM
Please format your answer as a value with the unit trailing.

Form: compound = COc1cc2nc3c(c(NC4CCN(C(C)C)CC4)c2cc1OC)CCC3 ; inhibition at 10 µM = 78%

The reported inhibition at 10 µM of the compound COc1cc2c(NC(C)C)c3c(nc2cc1OCCCN1CCCC1)CCC3 [drawing 582] was 51%

The measured inhibition at 10 µM associated with COc1cc2nc3c(c(N[C@@H]4CCCNC4)c2cc1OC)CCC3 [drawing 586] reads 76%
